Reported values of pA2 for individual entries
- testedSystem: Adrenergic receptor beta (Homo sapiens, UniProt P08588+P07550+P13945)
- testMethodNotes: In vitro blocking of beta adrenergic receptor in guinea pig trachea
- Assay type: tissue-based, Cavia porcellus
- measurementParameters: target entry is the homologue from another species
// keep it numeric: no unit symbol after the value

Solved entries (count: 2):
molecule="CC(C)NCC(O)COc1ccccc1 (stereo unspecified)" reading=7.4
molecule="CC(C)NCC(O)COC(=O)c1ccc(N)cc1 (stereo unspecified)" reading=6.6

Ask: Form field: pA2 recorded for CC(C)(C)NCC(O)COC(=O)c1ccc(F)cc1 (stereo unspecified) with Adrenergic receptor beta (Homo sapiens, UniProt P08588+P07550+P13945) (enter value)
Result: 8

Ask: Form field: pA2 recorded for CC(C)(C)NCC(O)COC(=O)c1ccc(N)cc1 (stereo unspecified) with Adrenergic receptor beta (Homo sapiens, UniProt P08588+P07550+P13945) (enter value)
Result: 7

Ask: Form field: pA2 recorded for CC(C)NCC(O)COC(=O)c1ccccc1F (stereo unspecified) with Adrenergic receptor beta (Homo sapiens, UniProt P08588+P07550+P13945) (enter value)
Result: 7.1

Ask: Form field: pA2 recorded for COc1ccc(C(=O)OCC(O)CNC(C)C)cc1 (stereo unspecified) with Adrenergic receptor beta (Homo sapiens, UniProt P08588+P07550+P13945) (enter value)
Result: 6.3

Ask: Form field: pA2 recorded for CC(C)NCC(O)COC(=O)c1cccc([N+](=O)[O-])c1 (stereo unspecified) with Adrenergic receptor beta (Homo sapiens, UniProt P08588+P07550+P13945) (enter value)
Result: 7.2

Ask: Form field: pA2 recorded for CC(C)(CNC(N)=O)NCC(O)COC(=O)c1ccccc1F (stereo unspecified) with Adrenergic receptor beta (Homo sapiens, UniProt P08588+P07550+P13945) (enter value)
Result: 8.4

Ask: Form field: pA2 recorded for CN(C)S(=O)(=O)NCC(C)(C)NCC(O)COC(=O)c1ccccc1F (stereo unspecified) with Adrenergic receptor beta (Homo sapiens, UniProt P08588+P07550+P13945) (enter value)
Result: 7.5
